// data source = PubChem BioAssay

assay: HepG2 cytotoxicity, primary screen, cytotoxicity control for P. falciparum antimalarial project, cell-based, ATP luminescence (AID 2303); conditions: HepG2 viability, 24-48 h, at 10 µM, hits give high values;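 note: 0% = DMSO wells and 100% = digitonin-killed cells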
For each of the molecules below, state its inhibition.
Hi! Could you send only the number? It should be in %, unit omitted.

[in] Which inhibition reading was recorded for the molecule Cc1nc2ccc([N+](=O)[O-])cc2c(=O)n1OCc1ccccc1 ?
[out] 2

[in] Can you look up the measured inhibition of C[C@H](Nc1nc(C(Oc2ccccc2)c2ccccc2)nc2[nH]ncc12)c1ccccc1 (stereo not given in full) for me?
[out] 15

[in] Any idea what inhibition was measured for CN1CCN(c2ccnc3ccc(NC(=O)Cc4cccc(Cl)c4Cl)cc23)CC1 ?
[out] 8

[in] Param item = Cc1cccc(Cl)c1S(=O)(=O)N1CCCCC(c2ccc(C(F)(F)F)cc2)=N1 ; retrieve measured inhibition.
[out] 5

[in] Given the molecule Oc1ccc(CCNc2nc(NCc3ccccc3Oc3ccc(C(F)(F)F)cc3)nc(N3CCNCC3)n2)cc1 , what is its reported inhibition?
[out] 26
